test system: HepG2 cells; test: MTT cytotoxicity assay in HepG2 cells; type: cell-based; details: HepG2 hypoxic
observable: pIC50
Recall that pIC50 is obtained by taking minus log10 of the concentration measured in molar.

Q) Entry N.N.[Cl][Pt][Cl] [Cisplatin] has what pIC50?
A) 3.77

---

test system: Huh7 cells; assay: MTT cytotoxicity assay in Huh7 cells; format: cell-based; details: Homo sapiens, Huh-7, Huh7 normoxic
observable: pIC50
Recall that pIC50 is obtained by taking minus log10 of the concentration measured in molar.

Example entries and their recorded answers appear below.
smiles_entry=O=c1[nH]cc(F)c(=O)[nH]1 target_or_test_system="Huh7 cells" observed=2.46
smiles_entry=COc1cccc2c1C(=O)c1c(O)c3c(c(O)c1C2=O)C[C@@](O)(C(=O)CO)C[C@@H]3O[C@H]1C[C@H](N)[C@H](O)[C@H](C)O1 target_or_test_system="Huh7 cells" observed=5.30

// switching to the query compound
Q) Hi! What's the reported pIC50 for CC(C)C[C@H](NC(=O)[C@H](Cc1ccccc1)NC(=O)c1cnccn1)B(O)O on Huh7 cells?
A) 4.26

---

tested on: HepG2 cells; assay: MTT cytotoxicity assay in HepG2 cells; type: cell-based; details: Homo sapiens, HepG2, HepG2 hypoxic
Measured pIC50 accompanies every entry in the list below.
Recall that pIC50 is obtained by taking minus log10 of the concentration measured in molar.

compound="COc1cccc2c1C(=O)c1c(O)c3c(c(O)c1C2=O)C[C@@](O)(C(=O)CO)C[C@@H]3O[C@H]1C[C@H](N)[C@H](O)[C@H](C)O1 [Doxorubicin]" observed=4.52
compound="CC(C)C[C@H](NC(=O)[C@H](Cc1ccccc1)NC(=O)c1cnccn1)B(O)O [Bortezomib]" observed=6.15

// switching to the query compound
Q) Hi! What's the reported pIC50 for O=c1[nH]cc(F)c(=O)[nH]1 [5FU, 5-fluorouracil] on HepG2 cells?
A) 2.40
